B1: TFE3 (parent)
chain: FPSDHLGDLGDPFHLGLEDILMEE

- Variants of: B1
- method: protein stability index of a GFP-peptide fusion (GPS, HEK-293T) (PSI 1-6); higher = more stable;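 note: lentivirally expressed fusions sorted by FACS into six bins by GFP to DsRed ratio, PSI derived from sequencing read proportions per bin multiplied by bin number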
- conditionLabel: c terminus: a fixed tail appended
# binarize protein stability index: threshold 3 inclusive, high side rule met, low side rule not met

{"sequenceChange": "D8N", "classification": "rule met"}
{"sequenceChange": "H5M", "classification": "rule met"}
{"sequenceChange": "L17K", "classification": "rule met"}
{"sequenceChange": "D4R", "classification": "rule not met"}
{"sequenceChange": "P12E", "classification": "rule met"}
{"sequenceChange": "F1H", "classification": "rule met"}
{"sequenceChange": "E24V", "classification": "rule not met"}
{"sequenceChange": "F1Y", "classification": "rule met"}
{"sequenceChange": "P12M", "classification": "rule met"}
{"sequenceChange": "S3M", "classification": "rule not met"}
{"sequenceChange": "G16D", "classification": "rule met"}
{"sequenceChange": "G10A", "classification": "rule met"}
{"sequenceChange": "D11Y", "classification": "rule not met"}
{"sequenceChange": "E24N", "classification": "rule met"}

Origin of measurements: the supplement of paper PMC10567573
